System: AP-1
Experiment: Cellular transrepression assay (AP-1 luciferase reporter in A549 cells, PMA activated)
Format: cell-based
Conditions: 7 h, 10 ng/ml PMA, read-out: AP-1 Max % inhibition (measured in cellular transrepression assay)
readout-type: Emax (%)
One number for each entry, in %.

// known answers, use as guide
>>> print(df.to_string())
                                   molecule  test_system  test_value
0  CCN(C)C(=O)c1ccc(-c2ccc3c(n2)Oc2nc(Cl)ccc2C3C(C)(C)C(=O)Nc2nnc(C)s2)cc1 (stereo not shown)         AP-1        57.7
1  Cc1ccc2c(n1)Oc1nc(-c3ccc(C(=O)N(C)C)cc3)ccc1[C@H]2C(C)(C)C(=O)Nc1nnc(C)s1         AP-1        26.6
2  CN(C)C(=O)c1ccc(-c2ccc3c(n2)Oc2nc(N(C)C)ccc2C3C(C)(C)C(=O)Nc2nncs2)cc1F (stereo not shown)         AP-1        43.4
3  CCN(C)C(=O)c1ccc(-c2ccc3c(n2)Oc2nc(C)ccc2C3C(C)(C)C(=O)Nc2nncs2)cc1 (stereo not shown)         AP-1          58
4  Cc1ccc2c(n1)Oc1nc(-c3ccc([S+]([O-])C(C)C)cc3)ccc1C2C(C)(C)C(=O)Nc1nncs1 (stereo in doubt)         AP-1        34.4
5  Cc1nnc(NC(=O)C(C)(C)C2c3ccc(Cl)nc3Oc3nc(-c4ccc(C(=O)N5CCOCC5)cc4)ccc32)s1 (stereo not shown)         AP-1        49.8

# input for lookup
Input CCN(C)C(=O)c1ccc(-c2ccc3c(n2)Oc2nc(C)ccc2[C@@H]3C(C)(C)C(=O)Nc2nnc(C(=O)NC3CCC3)s2)cc1 . Output Emax: 66.3

* * *

Test system: AP-1
Experiment: Cellular transrepression assay (AP-1 luciferase reporter in A549 cells, PMA activated)
Type: cell-based
Details: 7 h, 10 ng/ml PMA, read-out: AP-1 (EC50, nM) (measured in cellular transrepression assay)
Experimental: Cellular Transrepressional Assay To measure the ability of test molecules to inhibit AP-1 induced transcriptional activity we utilized an A549 cell which was stably transfected with a plasmid containing 7×AP-1 DNA binding sites (pAP-1-Luc plasmid, Stratagene Co. La Jolla, Calif.) followed by the gene for luciferase. […] After a 10 minute incubation of luciferase reagent with cells, luminescence was measured in a TopCount luminescence counter. […]
readout-type: EC50 (nM)
One number for each entry, in nM.

// known answers, use as guide
In [3]: df
Out[3]:
                                   compound  test_value
0  Cc1ccc2c(n1)Oc1nc(-c3ccc(C(=O)N(C)C)cc3)ccc1[C@H]2C(C)(C)C(=O)Nc1nnc(C)s1         297
1  Cc1ccc2c(n1)Oc1nc(-c3ccc(C(=O)N(C)C)cc3)ccc1C2C(C)(C)C(=O)Nc1nncs1 (stereo not shown)         189

For every record below, what is its EC50?
1. CCN(C)C(=O)c1ccc(-c2ccc3c(n2)Oc2nc(Cl)ccc2C3C(C)(C)C(=O)Nc2nnc(C)s2)cc1 (stereo not shown)
2. CCN(C)C(=O)c1ccc(-c2ccc3c(n2)Oc2nc(C)ccc2C3C(C)(C)C(=O)Nc2nncs2)cc1F (stereo not shown)
3. Cc1ccc2c(n1)Oc1nc(-c3ccc(C(=O)N(C)C)cc3)ccc1[C@H]2C(C)(C)C(=O)Nc1ncns1
4. Cc1ccc2c(n1)Oc1nc(-c3ccc(SC(C)C)cc3)ccc1[C@H]2C(C)(C)C(=O)Nc1nncs1
5. Cc1ccc2c(n1)Oc1nc(-c3ccc(C(=O)N4CCOCC4)c(F)c3)ccc1[C@H]2C(C)(C)C(=O)Nc1nncs1

Reply |
58.1
52
233
41.9
228
